- method_notes: protease stability score; higher = more stable; yeast display proteolysis, trypsin and chymotrypsin;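 further: log10 excess protease needed over predicted unfolded state with 0 meaning unfolded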
Catalogue of sequences with associated protease stability score
Note: the reply should be a number with no unit written.

DEEQVRKMLETILKMMVNGNLEEVKKVLKPNVDYQLGDEKLQGQQVAERADKYIKKVGVRAEIKRAKVEGDTAELDYEFTADGRTVRVTVQAHAKDGRLDQWRVEVSDTAKKIRQKG 0.736
DEKKAEDAARQMLEALRTGDPKRMVDHMDPNARALVGDTRYHGREEASKMVEHIRRRVDHVRVDNFRVRGNKLHLHAVFDSNGRRERVQIRADVHNGKIKVFEITSQ 0.342
DEEKVQDHNRKLWKLMKTGDSDQLRREMPPTAHAHVGDKSWHGSEAQNAMQEQARMQVDHLEVKKVDVTGDKIHQNVVRKENGRTENRVFAFQVDNGEIKQVEIRRS -0.146
DEDLLRRAEQFIKAELRNNPDRAKELADPNVKFNIGDKEIHGMDDFRRYLHKKVKNMKWRAKVTHMKVQGNHAKLHVKVTLDINGRPFDVTRDILIVFHNGKIRDVNVRVDPEDKKRQKE 1.39
DERRQAQQFADTFDDNMQENNEEEVVKMADPNAELTVGDKEYHGREEIQKWIKQIHDKVDHLEIHIKSVDVRNGRVTIRARVRVEHNGRQKTMSVDIKAEQKNGRFIIKTMTMG 1.47

State, in one line, measured protease stability score of "DERARERVEELLQVENDGDPDKVMEYFDPNAKAEIGDKHIHGRETFRHRLERTNKEMRYHLEVEHIRVNGNNVEMTFRAETEHNGQPSHDRNHAVLHITNGRIKYKRVKRDG"
0.178

###

Overview of reported protease stability score across a group of sequences:
- method_notes: protease stability score; higher = more stable; yeast display proteolysis, trypsin and chymotrypsin;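 further: log10 excess protease needed over predicted unfolded state with 0 meaning unfolded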
Field format: numeric only.

Worked cases, answers included:
DEEEAHELLKKVLHYTVKGNVDELRKFVKPDLKYVLGDQEHQGSQVADQVEKEIRRQGTRLEVEKAEVKGDKAELQYRFTVAGKTFTLHVRVRAKDHRVDEWKVEMTDDVKEYQKKG 0.391
DEEVQELVERIMTAFRTGNPEEVHKNLDPNAHIEVGDKRLHGMETIVHTIERKLRHARIDMKIDEMEVRNGRVEARVSFHVDVNGEPYSNSFSFQIEARNGKVKKVRVQIDPRDQRKMDS 0.877
DERDMKAIVRAVKAFRRNNPEEVRENVDENVRIHVGDKEVHGRDQLKRDMEREVKTWRRSIRRISIDNQGDTVNVDIDQEKKHDGDPNREQNVVHFVAQNGKIKSVEQRHDG 0.748
DSREQEDFRRKVETNNPDQEKKMFDENARLQVGDKTYHGREKVFDFLKTLMDQVDHVHVRDMHVKGDEYSFDIILDINGRRIHITFLARVHNGHIKSQSLRATDESVKDEIEELQG 0.404

Report measured protease stability score; entry is "DEQDQLKLAERVLKAVNDNNPQKFEELADENATVKVGDKTWHGRSHAQEMIKRFKERVDSLEIKHIDNRGNRARVHLVLEHNGRTTEMSIVVTVENGRAKAVVVHTK"
-0.133

Specify reported protease stability score for the sequence shown: "DHKAVEMVEQMWKNLNEGDFKKFTRLIDKDVKYVYGDRRVEGREELVNRFHRKMREMRFQIVRMSLTDHGDKVVVNYTVQFNKNGRPDRKVQRLLVKVENGTIKELRVQEHQ"
1.62

Ref: the NTF2 design screens of Basanta et al. (2020)
